tested on: MCF10A; experiment: one-nucleolus phenotype percent effect (relative to siNT 0% and siNOL11 100%); higher = more cells with one nucleolus (ribosome biogenesis inhibition); settings: 20 nM; 72 h
Measurement Name: one-nucleolus phenotype percent effect (%)

>>> df
                             sequence_string  system_tested  result_value
 0   CCAGACAGAAUUCUAUGCACUUUC [hsa-miR-1324]         MCF10A           -11
 1  UGGGGGGACAGAUGGAGAGGACA [hsa-miR-6887-5p]         MCF10A          22.8
 2  UAAAGACUGUAGAGGCAACUGGU [hsa-miR-7161-5p]         MCF10A         -23.4
 3     AAUGUGGACUGGUGUGACCAAA [hsa-miR-4491]         MCF10A        -0.704
 4  ACCUUCUUGUAUAAGCACUGUGCUAAA [hsa-miR-1248]         MCF10A         -15.4
 5     AGGCAAGAUGCUGGCAUAGCU [hsa-miR-31-5p]         MCF10A            26
 6    CAAGUCUUAUUUGAGCACCUGUU [hsa-miR-1264]         MCF10A         -11.7
 7     UAAAUCCCAUGGUGCCUUCUCCU [hsa-miR-605]         MCF10A          53.8
 8     ACCAGGCAAGAAAUAUUGU [hsa-miR-4645-5p]         MCF10A         -4.87
 9  CUCUAGCCACAGAUGCAGUGAU [hsa-miR-1287-3p]         MCF10A          31.4
10     UUGCUCUGAGCUCCGAGAAAGC [hsa-miR-5691]         MCF10A         -10.3
11   UGAUUGGUACGUCUGUGGGUAG [hsa-miR-509-3p]         MCF10A            34
12        CGGGGUCGGCGGCGACGUG [hsa-miR-7704]         MCF10A         -0.45
13  AUAUAAUACAACCUGCUAAGUG [hsa-miR-374b-5p]         MCF10A         -13.3
14      ACGGUGCUGGAUGUGGCCUUU [hsa-miR-1250]         MCF10A          57.9
15  CUAUACAGUCUACUGUCUUUCC [hsa-let-7f-2-3p]         MCF10A         -3.58
16   UUUGUGACCUGGUCCACUAACC [hsa-miR-758-3p]         MCF10A          35.1
17   AGAGGUUGCCCUUGGUGAAUUC [hsa-miR-377-5p]         MCF10A          36.3

----------
tested on: MCF10A; assay: one-nucleolus phenotype percent effect (relative to siNT 0% and siNOL11 100%); higher = more cells with one nucleolus (ribosome biogenesis inhibition); conditions: 20 nM; 72 h
Measurement Name: one-nucleolus phenotype percent effect (%)

>>> df
                             sequence_string  result_value
 0   UGUGGUAGAUAUAUGCACGAU [hsa-miR-4536-5p]          26.2
 1      GCUUGUCGCUGCGGUGUUGCU [hsa-miR-3655]          29.1
 2     GCGACUCUGAAAACUAGAAGGU [hsa-miR-4431]         -23.7
 3   UGACAGCGCCCUGCCUGGCUC [hsa-miR-2277-3p]          2.24
 4   GGAGACUGAUGAGUUCCCGGGA [hsa-miR-873-3p]         -6.55
 5         AGGAGAUCCUGGGUU [hsa-miR-3676-5p]          18.3
 6  GGGCCUCUCUUGUCAUCCUGCAG [hsa-miR-6744-3p]         -21.1
 7  UUUGGACAGAAAACACGCAGGU [hsa-miR-4520b-3p]         -21.6
 8      UAACAUAAUAGUGUGGAUUGA [hsa-miR-4803]           -25
 9    GAGGCUGAUGUGAGUAGACCACU [hsa-miR-3929]          14.1
10   UACGGUGAGCCUGUCAUUAUUC [hsa-miR-433-5p]          4.21

----------
test system: MCF10A; assay: one-nucleolus phenotype percent effect (relative to siNT 0% and siNOL11 100%); higher = more cells with one nucleolus (ribosome biogenesis inhibition); details: 20 nM; 72 h
Measurement Name: one-nucleolus phenotype percent effect (%)

>>> df
                             sequence_string  unit_string  result_value
 0   CAGCCUCUGCCCUUGGCCUCC [hsa-miR-6877-3p]            %          69.1
 1   GGGGUUCCUGGGGAUGGGAUUU [hsa-miR-23a-5p]            %           -14
 2  CGGGUAGAGAGGGCAGUGGGAGG [hsa-miR-197-5p]            %         -25.5
 3  ACACACUUACCCGUAGAGAUUCUA [hsa-miR-216b-3p]            %         -17.3
 4  UCGGCUCUCUCCCUCACCCUAG [hsa-miR-6741-3p]            %          9.37
 5   AGAGGCUGGCCGUGAUGAAUUC [hsa-miR-485-5p]            %         -17.3
 6  CCGGUCCCAGGAGAACCUGCAGA [hsa-miR-4746-5p]            %          11.9
 7  UGUUCAUUGGAACCCUGCGCAG [hsa-miR-6853-3p]            %         -28.7
 8  UUUUGCGAUGUGUUCCUAAUAU [hsa-miR-450a-5p]            %          3.94
 9          AGGGUGUGUGUGUUUUU [hsa-miR-4455]            %          3.96
10  CAGGCAGAAGUGGGGCUGACAGG [hsa-miR-6511a-5p]            %          6.88
11      UGGGAGAGAGGACUGUGAGGC [hsa-miR-8085]            %          21.4
12     AAAAUGAAAUGAGCCCAGCCCA [hsa-miR-3646]            %         -19.1
13  CAAAGUCCUUCCUAUUUUUCCC [hsa-miR-6507-3p]            %         -3.22
14      UUUGUUCGUUCGGCUCGCGUGA [hsa-miR-375]            %         0.601
15  CAUGCUGACCUCCCUCCUGCCCCAG [hsa-miR-4728-3p]            %         -12.7
16  ACCCAGGUUCCCUCUGGCCGCA [hsa-miR-4726-3p]            %          51.3
17        UGAGGGAGUUGGGUGUAUA [hsa-miR-6129]            %          18.8
18  UUGAAGAGGAGGUGCUCUGUAGC [hsa-miR-4709-3p]            %          29.5
19     UCACAAGGUAUUGACUGGCGUA [hsa-miR-4457]            %           1.5
20     UCCUCCUCUACCUCAUCCCAGU [hsa-miR-5193]            %          9.86
21  AGCCCGCCCCAGCCGAGGUUCU [hsa-miR-4707-3p]            %          19.7
22          ACAGGGAGGAGAUUGUA [hsa-miR-4441]            %          46.5
23        UGGGGCGGAGCUUCCGGAG [hsa-miR-3180]            %          10.4
24  UGAAGUUACAUCAUGGUCGCUU [hsa-miR-4670-3p]            %          2.16
25   AGAGAUGCCGCCUUGCUCCUU [hsa-miR-4708-5p]            %            21
26  GCGGGGGUGGCGGCGGCAUCCC [hsa-miR-4787-5p]            %         -21.5
27  CUUGCCAUCCUGGUCCACUGCAU [hsa-miR-4776-3p]            %          25.4
28        GCAUUGUGCAGGGCUAUCA [hsa-miR-4289]            %         -8.06
29     AAAAGUAAUCACUGUUUUUGCC [hsa-miR-548y]            %         -21.4
30    UAUCUGCUGGGCUUUCUGGUGUU [hsa-miR-4686]            %          43.6
31     GCCUCUCUCGGAGUCGCUCGGA [hsa-miR-3183]            %         -23.3
32  UCUCAGGAGUAAAGACAGAGUU [hsa-miR-3664-3p]            %         -19.4
33  AAAGUGCUUCCCUUUGGACUGU [hsa-miR-520a-3p]            %         -9.18
34      GUGAGUCUCUAAGAAAAGAGGA [hsa-miR-627]            %         -10.4
35   CGGCGCCCGUGUCUCCUCCAG [hsa-miR-6789-3p]            %         -9.93
36          GCCGGACAAGAGGGAGG [hsa-miR-4442]            %         -19.9
37  UGAGCGCCUCGACGACAGAGCCG [hsa-miR-339-3p]            %         -25.2
38   UAGGUUAUCCGUGUUGCCUUCG [hsa-miR-154-5p]            %          34.9
39  AGCUCGGUCUGAGGCCCCUCAGU [hsa-miR-423-3p]            %          19.5
40  ACAGGUGAGGUUCUUGGGAGCC [hsa-miR-125a-3p]            %          5.16
41    AGAAGAAGGCGGUCGGUCUGCGG [hsa-miR-3185]            %          33.8
42       GGAGAUGGAGGUUGCAGUG [hsa-miR-1273f]            %          20.3
